- System: Jurkat hematological cancer cell line
- assay-comment: Ex vivo proliferation assay, hematological cancer cell lines, 72 h
- Assay type: cell-based
- conditions: Homo sapiens; Table 6: Jurkat, 72 h of exposure
pIC50: −log10 of the molar value.

{"columns": ["given-smiles", "tested-on", "pIC50"],
 "data": [
  ["C[C@H](OP(=O)(N1CC1)N1CC1)c1ccc([N+](=O)[O-])c(Oc2cccc(C(=O)N(C)C)c2)c1", "Jurkat hematological cancer cell line", 7.29]
]}

###

- System: SUP-T1 cell line
- assay-comment: Ex vivo cytotoxicity assay, leukemia cell lines
- Type: cell-based
- conditions: Homo sapiens; Table 4: SUP-T1, T-ALL (child), AKR1C3 expression Strong; CellTiter-Glo
- Description: Leukemia cell lines were suspended in RPMI medium supplemented with FBS (Biosera), while ALL PDX cells were cultured in QBSF medium (Quality Biological Inc.,) supplemented with Flt-3 ligand (20 ng/ml, BioNovus Life Sciences) or IL7 (10-20 ng/ml, Jomar Life Research). […] Viability was determined using Alamar Blue reduction assay or Cell Titer-Glo Luminescent Cell Viability Assay (Promega). […] The expression levels of AKR1C3 protein was determined by Western blot analysis. […]
pIC50: −log10 of the molar value.

{"columns": ["given-smiles", "tested-on", "pIC50"],
 "data": [
  ["C[C@H](OP(=O)(N1CC1)N1CC1)c1ccc([N+](=O)[O-])c(Oc2cccc(C(=O)N(C)C)c2)c1", "SUP-T1 cell line", 8.52]
]}
